// provenance: patent US12440496B2

# target_entity: UniProt:P16066
# Sequence (P16066 33-1061): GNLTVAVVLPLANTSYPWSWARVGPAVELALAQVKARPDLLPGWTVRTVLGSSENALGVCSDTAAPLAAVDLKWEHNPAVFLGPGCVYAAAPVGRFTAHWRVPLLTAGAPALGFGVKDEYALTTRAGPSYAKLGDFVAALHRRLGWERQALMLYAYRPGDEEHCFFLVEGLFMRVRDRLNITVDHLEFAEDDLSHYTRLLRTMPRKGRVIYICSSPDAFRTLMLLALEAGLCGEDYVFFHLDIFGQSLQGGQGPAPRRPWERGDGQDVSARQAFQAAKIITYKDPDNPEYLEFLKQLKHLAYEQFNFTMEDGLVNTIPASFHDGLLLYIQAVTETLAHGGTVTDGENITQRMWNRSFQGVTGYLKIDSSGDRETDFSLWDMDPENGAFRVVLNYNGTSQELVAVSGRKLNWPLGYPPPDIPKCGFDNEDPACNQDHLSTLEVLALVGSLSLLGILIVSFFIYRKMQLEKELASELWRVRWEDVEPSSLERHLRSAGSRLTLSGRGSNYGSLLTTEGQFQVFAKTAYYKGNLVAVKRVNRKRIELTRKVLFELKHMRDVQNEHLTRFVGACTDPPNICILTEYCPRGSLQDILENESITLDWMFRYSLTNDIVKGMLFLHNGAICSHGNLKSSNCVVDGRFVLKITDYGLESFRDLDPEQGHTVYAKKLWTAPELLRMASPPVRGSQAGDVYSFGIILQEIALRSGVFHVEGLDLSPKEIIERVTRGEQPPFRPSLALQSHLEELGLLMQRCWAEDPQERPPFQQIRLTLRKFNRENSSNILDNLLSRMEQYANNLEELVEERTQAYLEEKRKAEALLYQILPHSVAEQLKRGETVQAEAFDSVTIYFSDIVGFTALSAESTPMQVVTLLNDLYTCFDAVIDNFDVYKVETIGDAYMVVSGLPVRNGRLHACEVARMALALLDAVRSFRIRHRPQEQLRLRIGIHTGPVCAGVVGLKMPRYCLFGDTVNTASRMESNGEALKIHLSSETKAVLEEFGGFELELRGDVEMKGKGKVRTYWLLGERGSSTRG
# test_name: NPRA Functional Cell Assay (cGMP HTRF, NPRA HEK JumpIn stable cells)
# condition_notes: cGMP production, 1 hour at 37° C., 10-point dose response
# Procedure: NPRA Functional Cell Assay Assay Buffer components HEPES and Opti-MEM® I Reduced-Serum with Glutamine (no phenol red) were from Gibco/Invitrogen (Thermo Fisher Scientific, Waltham, MA USA). […] The assay ready frozen (ARF) Human/rat/dog NPRA HEK JumpIn Stable frozen cells (low passage number 5-11) were prepared in-house. […] hNPRA EC50 (nM) were determined for the compounds of Example 1 through Example 273 and are reported in the Experimental section of this application.
pEC50: −log10 of the molar value. Where a name gives a salt, the structure may show the parent alone.
Overview of recorded pEC50 for various compounds
readout_kind: pEC50

compound="CC(C)(C)[C@H]1CCc2nc3sc(C(=O)N[C@H](CCN4CCC(O)CC4)c4ccc(-c5c[nH]nc5C(F)(F)F)cc4)nc3cc2C1 (racemic) [Example 167, trifluoroacetate]" experimental_result=6.18
compound="CC(C)(C)[C@H]1CCc2nc3sc(C(=O)NC(CCN4CCCCC4)c4ccccc4)cc3cc2C1 (some centres unmarked)" experimental_result=5.73
compound="CC(C)(C)[C@H]1CCc2nc3sc(C(=O)N[C@H](CCN4CCC(O)CC4)c4cccc(NS(C)(=O)=O)c4)cc3cc2C1 (racemic)" experimental_result=6.34
compound="CC(C)(C)[C@H]1CCc2nc3sc(C(=O)N[C@H](CCN4CCC[C@H](O)[C@H]4CO)c4ccc(-c5ccc(=O)[nH]c5)cc4)cc3cc2C1 (racemic) [Example 31, formate]" experimental_result=6.33
compound=CC(C)(C)[C@H]1CCc2nc3sc(C(=O)N[C@H](CCN4CCC(O)CC4)c4ccc(N5CCOCS5(=O)=O)nc4)nc3cc2C1 experimental_result=6.74
compound="CC(C)(C)[C@H]1CCc2nc3sc(C(=O)N[C@H](CCN4CCC(O)CC4)c4ccc(-c5cc(=O)[nH]c(=O)[nH]5)cc4)nc3cc2C1 (racemic)" experimental_result=5.79
compound=CC1([C@H]2CCc3nc4sc(C(=O)N[C@H](CCN5CCC(O)CC5)c5ccc(N6CCOC6=O)cc5)nc4cc3C2)CC1 experimental_result=6.14
compound="CN(C)CC[C@@H](NC(=O)c1cc2cc3c(nc2s1)CC[C@H](C(C)(C)C)C3)c1cccc(NS(C)(=O)=O)c1 (racemic)" experimental_result=6.15
compound="CC(C)(C)[C@H]1CCc2nc3sc(C(=O)N[C@H](CCN4CCC(O)C4)c4ccc(-c5ccc(=O)[nH]c5)cc4)cc3cc2C1 (mixture of isomers)" experimental_result=6.18
compound=CC(C)(C)[C@H]1CCc2nc3sc(C(=O)N[C@H](CCN4CCC[C@@H]4CO)c4ccccc4)cc3cc2C1 experimental_result=5.20
compound="CC(C)(C)[C@H]1CCc2nc3sc(C(=O)N[C@H](CCN4CCC(O)CC4)c4ccc(-c5cnoc5)cc4)nc3cc2C1 (racemic) [Example 176, trifluoroacetate]" experimental_result=5.99
compound=CC(C)(C)[C@H]1CCc2nc3sc(C(=O)N[C@H](CCN4CCC(O)CC4)c4ccc(-c5cc(F)c(O)cn5)cc4)nc3cc2C1 experimental_result=6.52
compound="CC(C)(C)[C@H]1CCc2nc3sc(C(=O)N[C@H](CCNC4CCNC4=O)c4ccc(-c5ccc(=O)[nH]c5)cc4)cc3cc2C1 (mixture of isomers)" experimental_result=5.75
compound=CC(C)[C@]1(F)CCc2nc3sc(C(=O)N[C@H](CCN4CCC(O)CC4)c4ccc(-c5ccnnc5)nc4)nc3cc2C1 experimental_result=6.61
compound="CC(C)(C)[C@H]1CCc2nc3sc(C(=O)N[C@H](CCN4CCC(C(=O)O)CC4)c4cccc(C(=O)NC5CN(Cc6ccccc6)C5)c4)nc3cc2C1 (racemic)" experimental_result=6.18
compound="COC(=O)C1CCN(CC[C@@H](NC(=O)c2nc3cc4c(nc3s2)CC[C@H](C(C)(C)C)C4)c2cccc(C(=O)NC3CN(C)C3)c2)CC1 (racemic)" experimental_result=6.17
compound="CC(C)(C)[C@H]1CCc2nc3sc(C(=O)N[C@H](CCN4CCC(O)CC4)c4cccc(C(=O)N5CCC6NCCC65)c4)nc3cc2C1 (mixture of isomers)" experimental_result=6.22
compound="CN1CC(NC(=O)c2cccc([C@@H](CCN3CCC(CC(=O)O)CC3)NC(=O)c3nc4cc5c(nc4s3)CC[C@H](C(C)(C)C)C5)c2)C1 (racemic)" experimental_result=6.84
compound="CN(C)C1CN(C(=O)c2cccc([C@@H](CCN3CCC(O)CC3)NC(=O)c3nc4cc5c(nc4s3)CC[C@H](C(C)(C)C)C5)c2)C1 (racemic)" experimental_result=6.18
compound="CC1(CN)CN(CC[C@@H](NC(=O)c2cc3cc4c(nc3s2)CC[C@H](C(C)(C)C)C4)c2ccc(-c3ccc(=O)[nH]c3)cc2)C1 (racemic)" experimental_result=6.17
compound=CC(C)(C)[C@H]1CCc2nc3sc(C(=O)N[C@H](CCN4CC(O)C4)c4ccccc4)cc3cc2C1 experimental_result=5.51
compound="CC(C)(C)[C@H]1CCc2nc3sc(C(=O)N[C@H](CCN4CCC(C(=O)O)CC4)c4cccc(C(=O)NC5CCN(C6CC6)C5)c4)nc3cc2C1 (mixture of isomers)" experimental_result=6.03
compound="CC(C)(C)[C@H]1CCc2nc3sc(C(=O)N[C@H](CCN4CCC(F)CC4)c4cccc(NS(C)(=O)=O)c4)cc3cc2C1 (racemic)" experimental_result=6.08
